Data origin: PubChem BioAssay AID1159580

assay: chemical genetic growth profiling, strain panel (AID 1159580);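 further: tested at 20 µM; growth read once vehicle control cultures reached saturation at 30 °C; 1 = growth at the plate median or of vehicle wells; lower values mean less growth of the strain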
condition: S. cerevisiae deletion strains, growth OD, locus YLL026W, stronger effect = lower value
The campaign covered roughly 5,500 compounds. About 2,000 (36%) were called active. Roughly 18% stayed inconclusive and do not appear here. The list shows a part of the results.
quantity: normalized growth
Give a plain numeric answer without units written out.

Input: I am curious: what normalized growth value has been reported for CC(=O)OC1CCC2C3CCc4cc(O)ccc4C3CCC12C (stereo unspecified) ?
Output: 0.996

Input: Continue with COc1cc(OC)c2c(=O)c(-c3ccc4c(c3)OCO4)coc2c1
Output: 0.985

Input: # iterate: C[C@]12C=CC(=O)C=C1CCC1C2C(=O)C[C@@]2(C)C1CC[C@]2(O)C(=O)CO (stereo partly specified)
Output: 0.986

Input: Further, for COc1ccc2c(=O)c(-c3cc4c(cc3OC)OCO4)coc2c1 ?
Output: 1.01

Input: Try this compound next: COc1c2c(cc3occ(-c4ccc5c(c4)OCO5)c(=O)c13)OC(C)(C)C=C2
Output: 1

Input: Another compound: C=C1CC2C(CCC3(C)C(=O)CCC23)C2(C)C=CC(=O)C=C12 (stereo unspecified)
Output: 0.936

Input: Entry CNC(=O)CSP(=S)(OC)OC please
Output: 1.02

Input: Now give it for C[C@]12C=CC(=O)C=C1CCC1C2CC[C@]2(C)C(=O)CCC12 (stereo partly specified) too.
Output: 0.981

Input: Same thing, different compound: CCC(=O)O[C@H]1CCC2C3CCc4cc(O)ccc4C3CC[C@@]21C (stereo partly specified)
Output: 1

Input: Try COc1ccc2c(c1)[nH]c1c(C)nccc12 next.
Output: 0.993

Input: Also, COP(=S)(OC)SCn1nnc2ccccc2c1=O please.
Output: 0.999
